Source listed as patent US10988465B2.

This section presents compounds with their documented clearance values.
# assay.procedure: Mouse brain uptake assay (MBUA), 3 mg/kg IV, 0-1 h, 3 time points
# Format: in vivo, male CD1 mice
# condition.summary: male, CD1, plasma; mouse, 3 mg/kg IV, 0-1 h, 3 time points
readout: clearance

[
  {
    "compound": "Cc1cccnc1[C@@H]1CCC[C@H](c2nc3ccccc3n2CC2CCN(C)CC2)N1C [I-15]",
    "readout": "clearance",
    "recorded.result": "282 mL/min/kg"
  },
  {
    "compound": "Cc1cccnc1[C@@H]1CCC[C@H](c2nc3cccc(N4CCN(C)CC4)c3[nH]2)N1 [I-83]",
    "readout": "clearance",
    "recorded.result": "101 mL/min/kg"
  },
  {
    "compound": "CN1CCN(c2cccc3nc([C@H]4CCC[C@@H](c5ncccc5Cl)N4C)[nH]c23)CC1 [I-9]",
    "readout": "clearance",
    "recorded.result": "77.2 mL/min/kg"
  },
  {
    "compound": "Cc1cccnc1[C@@H]1CCC[C@H](c2nc3ccccc3n2CC2CCN(C(C)C)CC2)N1C [I-23]",
    "readout": "clearance",
    "recorded.result": "375 mL/min/kg"
  },
  {
    "compound": "Cc1cccnc1[C@@H]1CCC[C@H](c2nc3cccc(N4CCN(C)CC4)c3[nH]2)N1C (racemic) [I-3]",
    "readout": "clearance",
    "recorded.result": "115 mL/min/kg"
  },
  {
    "compound": "CN1CCN(c2cccc3nc([C@H]4CCC[C@@H](c5ncccc5Cl)N4)[nH]c23)CC1 (racemic) [I-122]",
    "readout": "clearance",
    "recorded.result": "119 mL/min/kg"
  },
  {
    "compound": "Cc1cccnc1[C@@H]1CCC[C@H](c2nc3cccc(N4CCN(C)C5(CC5)C4)c3[nH]2)N1 [I-132]",
    "readout": "clearance",
    "recorded.result": "19.7 mL/min/kg"
  },
  {
    "compound": "COc1cccnc1[C@@H]1CCC[C@H](c2nc3cccc(N4CCN(C)CC4)c3[nH]2)N1 [I-127]",
    "readout": "clearance",
    "recorded.result": "132 mL/min/kg"
  }
]

====

# assay.procedure: in vitro
# condition.summary: human, Caco-2, pH 7.4
# Protocol: Example 37: Caco-2 Permeability Assay The goal of this assay was to evaluate the intestinal absorption potential of drug candidates using Caco-2 cell lines. HBSS buffer with 0.3% DMSO and 5 μM LY: add 150 μL DMSO and 50 μL LY (5 mM) into 50 ml HBSS buffer (pH 7.4). HBSS buffer with 0.1% DMSO and 5 μM LY: add 50 μL DMSO and 50 μL LY (5 mM) into 50 mL HBSS buffer (pH 7.4). […] 1. Papp values were calculated based on calculated concentrations. […]
In this section we review reported Papp B→A at 90 min, 10 μM values for a set of molecules.

[
  {
    "query.smiles": "Cc1cccnc1[C@@H]1CCC[C@H](c2nc3ccccc3n2CC2CCN(C)CC2)N1C",
    "Papp B→A at 90 min, 10 μM": "10 to 30 ×10⁻⁶ cm/s"
  },
  {
    "query.smiles": "Cc1cccnc1[C@@H]1CCC[C@H](c2nc3ccccc3n2CC2CCN(C(C)C)CC2)N1C",
    "Papp B→A at 90 min, 10 μM": "0.1 to 10 ×10⁻⁶ cm/s"
  },
  {
    "query.smiles": "CN1CCN(c2cccc3nc([C@H]4CCC[C@@H](c5nccc6occc56)N4C)[nH]c23)CC1",
    "Papp B→A at 90 min, 10 μM": "10 to 30 ×10⁻⁶ cm/s"
  },
  {
    "query.smiles": "Cc1cccnc1[C@@H]1CCC[C@H](c2nc3cccc(N4CCN(C)C5(CC5)C4)c3[nH]2)N1",
    "Papp B→A at 90 min, 10 μM": "10 to 30 ×10⁻⁶ cm/s"
  }
]
